test system: UACC-62 melanoma; experiment: NCI-60 one-dose screen, 48 h (100 = growth as untreated, 0 = no growth, -100 = all killed); conditions: 10 µM unless noted
This is part of a sample that, as a whole, favours compounds with a hit. Of some 83,000 tested, about 20% had one in any assay.
Tag: criterion met if measured growth is not below 60%, criterion not met if it is.

Ask: Is the recorded value of growth equal to or greater than 60% for this compound? COc1cc2cc(C(=O)N3C[C@@H](CCl)c4c3cc(OC(=O)N(C)CCSSCCN3CCOCC3)c3ccccc43)[nH]c2c(OC)c1OC
Result: criterion not met

Ask: Is the recorded value of growth equal to or greater than 60% for this compound? Oc1cncc(-c2ccc3ncnc(N4CCc5cc(F)c(Cl)cc54)c3c2)c1
Result: criterion met

Ask: Is the recorded value of growth equal to or greater than 60% for this compound? Clc1ccc(CNc2nc(SCCN3CCOCC3)nc3c2cnn3CC(Cl)c2ccc(Br)cc2)cc1 (centres undefined)
Result: criterion not met

Ask: Is the recorded value of growth equal to or greater than 60% for this compound? O=C(N/N=C/c1ccc(-c2cccc([N+](=O)[O-])c2)s1)c1[nH]c2ccc(Br)cc2c1-c1ccccc1
Result: criterion met

Ask: Is the recorded value of growth equal to or greater than 60% for this compound? COc1ccc(-c2nc3ccc(-c4nnc(SCc5ccccc5)o4)cc3[nH]2)cc1OC
Result: criterion not met

Ask: Is the recorded value of growth equal to or greater than 60% for this compound? CCN(C(=O)CN1C(=O)/C(=C/c2ccco2)SC1=S)C1CCS(=O)(=O)C1 (centres undefined)
Result: criterion met

Ask: Is the recorded value of growth equal to or greater than 60% for this compound? CN(C(=O)CN1C(=O)/C(=C/c2ccco2)SC1=S)C1CCS(=O)(=O)C1 (centres undefined)
Result: criterion met

Ask: Is the recorded value of growth equal to or greater than 60% for this compound? Nc1nn2c(-c3cc4ccccc4oc3=O)ccnc2c1N=Nc1ccccc1
Result: criterion met

Ask: Is the recorded value of growth equal to or greater than 60% for this compound? CN1C(=O)/C(=C/c2ccco2)S/C1=N/c1nccs1
Result: criterion met

Ask: Is the recorded value of growth equal to or greater than 60% for this compound? Cc1ccc(C2CC(c3ccc(NC(=O)Nc4ccccc4)cc3)=NN2c2ccc(S(N)(=O)=O)cc2)cc1 (centres undefined)
Result: criterion not met

Ask: Is the recorded value of growth equal to or greater than 60% for this compound? Cn1cc(-c2cc(N)n3nc(-c4c[nH]c5ccc(F)cc45)cc3n2)c2cccnc21
Result: criterion not met

Ask: Is the recorded value of growth equal to or greater than 60% for this compound? COc1ccc(C(=O)c2cc(C(C)=O)c3c(C)cc(C)cn23)cc1
Result: criterion met

Ask: Is the recorded value of growth equal to or greater than 60% for this compound? Nc1ccc(-c2ccc3ncnc(N4CCc5cc(F)c(Cl)cc54)c3c2)cn1
Result: criterion not met

Ask: Is the recorded value of growth equal to or greater than 60% for this compound? Nc1nnc(CS(=O)(=O)c2ccccc2)s1
Result: criterion met

Ask: Is the recorded value of growth equal to or greater than 60% for this compound? CN(C)c1nc(NCCNS(=O)(=O)c2ccc(C3=Nc4c(N)nc(N)nc4NC(c4ccc(Cl)cc4)C3)cc2)nc(N2CCOCC2)n1 (centres undefined)
Result: criterion met

Ask: Is the recorded value of growth equal to or greater than 60% for this compound? Cc1ccccc1Nc1nnc(-c2c[nH]c3ccccc23)o1
Result: criterion not met

Ask: Is the recorded value of growth equal to or greater than 60% for this compound? CS(=O)(=O)Nc1cc(-c2ccc3ncnc(Nc4ccc(OCc5cccnc5)c(Cl)c4)c3c2)cnc1Cl
Result: criterion not met

Ask: Is the recorded value of growth equal to or greater than 60% for this compound? O=C1CCC(N2C(=O)c3cccc(NCCOCCOCCOCCC(=O)NCCCC(=O)NC(c4ccc5c(c4)OCO5)c4cc(Cl)c5cccnc5c4O)c3C2=O)C(=O)C1 (centres undefined)
Result: criterion not met

* * *

test system: NCI-H322M lung; test: NCI-60 one-dose screen, 48 h (100 = growth as untreated, 0 = no growth, -100 = all killed); conditions: 10 µM unless noted
The panel holds about 83,000 compounds, 20% with a hit somewhere; the sample as a whole holds those more often.
measured_metric: growth (%)
Value expressed in %; do not type the unit.

Given item O=C(Cc1c(-c2cccc([N+](=O)[O-])c2)n(-c2ncnc3c2c(-c2ccccc2)c(-c2ccccc2)n3Cc2ccccc2)[nH]c1=O)c1ccc(Cl)c(Cl)c1 , the value recorded as its growth is 79.1

Given item C/C(=N\Nc1ccc(S(N)(=O)=O)cc1)c1cnn(-c2cc(=O)[nH]c3ccc(Br)cc23)c1C , the value recorded as its growth is 77.7

Given item Cc1ccc(C(=O)Nc2cc(-c3ccncc3)cc(C(F)(F)F)c2)cc1C#Cc1cnc2cccnn12 , the value recorded as its growth is 79

* * *

system: NCI-H522 lung; experiment: NCI-60 one-dose screen, 48 h; settings: 10 µM unless noted
About 83,000 compounds went through this panel and 20% of them were active in at least one assay; those are over-represented in the sample as a whole. Calls of active or inactive are those of the source. The calls were made as follows: active = growth percent below 10; inactive = the rest.
Just give me one of these, please: class 1 for active, class 0 for inactive

Ask: What was the test verdict on COc1ccc(C(=O)c2c(N)c(C#N)cn2-c2ccc([N+](=O)[O-])cc2)cc1 ?
Result: class 0

Ask: What was the test verdict on COc1cc(CNC(=O)C[C@H](C)CCC=C(C)C)ccc1OCc1cn(-c2ccccc2Cl)nn1 ?
Result: class 0

Ask: What was the test verdict on COc1ccc2[nH]c(O)c(N=Nc3nc(-c4ccc(Cl)cc4)cs3)c2c1 ?
Result: class 1

Ask: What was the test verdict on Cc1cccc(NCC(=O)N2CCN(c3ncnc4c3cnn4-c3ccccc3)CC2)c1 ?
Result: class 1

Ask: What was the test verdict on O=C(Nc1nc2ccc([N+](=O)[O-])cc2s1)Nc1ccc(Cl)cc1Cl ?
Result: class 0

Ask: What was the test verdict on O=C(N/N=C/c1occc1Br)c1[nH]c2ccc(Br)cc2c1-c1ccccc1 ?
Result: class 1

Ask: What was the test verdict on FC(F)(F)c1cc2c(Cl)ncnc2n1CCC1CCOCC1 ?
Result: class 1

Ask: What was the test verdict on Cc1nc(N)ncc1-c1ccc2ncnc(N3CCc4cc(F)c(Cl)cc43)c2c1 ?
Result: class 0

Ask: What was the test verdict on COc1ccc(N=Nc2c(N)nn3c(N)c(C#N)c(-c4ccc(C)cc4)nc23)cc1 ?
Result: class 0

Ask: What was the test verdict on COc1ccccc1Nc1nnc(-c2c[nH]c3ccccc23)o1 ?
Result: class 1

Ask: What was the test verdict on S=C(Nc1ccc(OCc2nc3ccc(Cl)cc3[nH]2)cc1)NC1CCCCC1 ?
Result: class 1

Ask: What was the test verdict on CCCCC[C@@H]1C/C=C(\C)[C@@H](O)C(C)(C)C(=O)[C@@H](C)/C=C(\C)[C@@H]2C[C@H](O)C[C@](O)(CC(=O)O1)O2 ?
Result: class 0

Ask: What was the test verdict on Cc1nn(-c2ccccc2)c2nc(C)n(C(=O)N/N=C/c3ccccc3)c(=O)c12 ?
Result: class 0

Ask: What was the test verdict on O=C(CSc1nc2c(c(=O)[nH]1)CCCC2)Nc1ccccc1C(=O)O ?
Result: class 0

Ask: What was the test verdict on N#CC1=C(c2cccs2)Nc2c(c(-c3ccccc3)nn2-c2ccccc2)C12C(=O)Nc1ccc(Br)cc12 (stereo not drawn) ?
Result: class 1

Ask: What was the test verdict on O=C(O)CC1S/C(=N/N=C/c2nc3ccccc3s2)NC1=O (stereo not drawn) ?
Result: class 0

Ask: What was the test verdict on N#Cc1cc(-c2ccnc(Nc3ccc(N4CCN(C5COC5)CC4)cc3)n2)ccc1N1CCCC1 ?
Result: class 0

Ask: What was the test verdict on COc1ccc(/C=C/c2nc3ccccc3n3c(-c4cccc([N+](=O)[O-])c4)nnc23)cc1 ?
Result: class 1

* * *

system: SN12C renal; test: NCI-60 one-dose screen, 48 h; conditions: 10 µM unless noted
This is part of a sample that, as a whole, favours compounds with a hit. Of some 83,000 tested, about 20% had one in any assay. Activity calls are given as the source filed them. The calls were made as follows: active = growth percent below 10; inactive = the rest.
Just give me one of these, please: label 1 (active), label 0 (inactive)

Ask: What was the test verdict on COc1cc(/C=C/C(=O)c2cnn(-c3cc(=O)[nH]c4ccccc34)c2C)cc(OC)c1OC ?
Result: label 1

Ask: What was the test verdict on Cc1ccc(NC(=O)N/N=C/c2c[nH]c3ccccc23)c(C)c1 ?
Result: label 0

Ask: What was the test verdict on O=C(c1ccc(Cl)cc1)C1[C@H](c2ccccc2Cl)[C@@H](c2ccccc2)NC12C(=O)Nc1ccc(Cl)cc12 (stereo not given in full) ?
Result: label 1

Ask: What was the test verdict on Cc1cn(-c2cc(NC(=O)c3ccc(C)c(-n4cc(-c5cnc6cccnn56)nn4)c3)cc(C(F)(F)F)c2)cn1 ?
Result: label 0

Ask: What was the test verdict on COc1cc(NC(=O)C(C)C)ccc1C(=O)NC(=S)Nc1ccc(S(N)(=O)=O)cc1 ?
Result: label 0

Ask: What was the test verdict on COc1cc2cc(C(=O)N3C[C@@H](CCl)c4c3cc(OC(=O)N(C)CCSSCCN3CCOCC3)c3ccccc43)[nH]c2c(OC)c1OC ?
Result: label 1

Ask: What was the test verdict on COc1ccc(Nc2nnc(-c3c[nH]c4ccccc34)o2)cc1 ?
Result: label 0

Ask: What was the test verdict on O=C(NNC(=S)NC(=O)c1ccccc1)c1ccc(OCc2nc3ccc(Cl)cc3[nH]2)cc1 ?
Result: label 1

Ask: What was the test verdict on COc1c2c(cc3c1C(CCc1ccccc1)N(C)CC3)OCO2 (stereo not given) ?
Result: label 1

Ask: What was the test verdict on CNS(=O)(=O)N1CCc2c(Br)c3c(c(OC)c2C1CCc1ccccc1)OCO3 (stereo not given) ?
Result: label 1

Ask: What was the test verdict on COc1c(B(O)O)cccc1-c1nc2ccc3cn[nH]c3c2c2c1CCCC2 ?
Result: label 0

Ask: What was the test verdict on Cn1cc(-c2cc3nc(-c4c[nH]c5ccccc45)cc(N)n3n2)c2ccccc21 ?
Result: label 1

Ask: What was the test verdict on COC(=O)c1cc(C(C)=O)n2c3ccccc3c3ccccc3c12 ?
Result: label 0

Ask: What was the test verdict on Clc1ccc(-c2nc3ccc(-c4nnc(SCc5ccccc5)o4)cc3[nH]2)cc1 ?
Result: label 1

Ask: What was the test verdict on CCOc1ccccc1[C@H]1C(C(=O)c2ccc(Cl)cc2)C2(N[C@@H]1c1ccccc1)C(=O)Nc1ccccc12 (stereo not given in full) ?
Result: label 1
